# maps each entry to its growth
System: SF-295 CNS
Experiment: NCI-60 one-dose screen, 48 h (100 = growth as untreated, 0 = no growth, -100 = all killed)
Settings: 10 µM
This is part of a sample that, as a whole, favours compounds with a hit. Of some 83,000 tested, about 20% had one in any assay.
Report only the number, with the unit % understood.

As a guide, the following entries are already answered.
molecule: O=[P@@]1(c2ccccc2)O[C@H](COCc2ccccc2)[C@@H](OCc2ccccc2)[C@H](OCc2ccccc2)[C@H]1O
u: %
readout value: -24.9
--
molecule: COc1cc(Nc2ccnc(NCCCNc3ccnc4cc(Cl)ccc34)n2)cc(OC)c1
u: %
readout value: -75.9
--
molecule: COc1ccc(NC(=O)Cc2nc3nc4sc(C)c(C)c4c(=O)n3[nH]2)cc1
u: %
readout value: 91.3

Notebook: CCOC(=O)N/N=C\C(C)=N\NC(=O)OCC , growth read as 90.9

Summary for this molecule, C=C(Cl)[C@@](Cl)(CBr)CC[C@@H](Br)C(C)(C)Cl : growth is -48.4
